B1: TPR t1 (parent)
chain: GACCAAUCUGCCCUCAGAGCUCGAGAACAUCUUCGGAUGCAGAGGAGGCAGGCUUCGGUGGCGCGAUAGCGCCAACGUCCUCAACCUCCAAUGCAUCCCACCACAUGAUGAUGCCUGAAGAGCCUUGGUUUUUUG

Variants of: B1
Test: polymerase ribozyme fitness, log enrichment relative to wild type (log ratio); higher = more active; in vitro selection for triplet polymerase activity
readout type: polymerase ribozyme fitness (log ratio)
API note: the answer field is a bare number with no unit suffix.

Query: Please look up its polymerase ribozyme fitness (log ratio): U81C C97U C114A
Result: -3.09

Query: Here is the next variant: G57U G63A C89G
Result: -3.98

Query: Also, G47U G51U G60C please.
Result: -3.98

Source of measurements: the RNAGym collection of RNA variant scans (doi:10.1073/pnas.2313332121)
